Entry source: patent US20250011468A1

Please go through the items and note down their FXa generation rate at 6.3 nM mAb.
# target-system: human plasma-derived FIXa (Haematologic Technologies Inc) (human, UniProt P00740 47-191; P00740 227-461)
# Sequence (P00740 47-191, chain 1 of 2): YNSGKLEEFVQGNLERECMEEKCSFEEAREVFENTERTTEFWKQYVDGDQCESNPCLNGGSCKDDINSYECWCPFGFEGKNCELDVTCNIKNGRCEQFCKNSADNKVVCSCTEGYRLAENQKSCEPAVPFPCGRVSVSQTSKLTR
# Sequence (P00740 227-461, chain 2 of 2): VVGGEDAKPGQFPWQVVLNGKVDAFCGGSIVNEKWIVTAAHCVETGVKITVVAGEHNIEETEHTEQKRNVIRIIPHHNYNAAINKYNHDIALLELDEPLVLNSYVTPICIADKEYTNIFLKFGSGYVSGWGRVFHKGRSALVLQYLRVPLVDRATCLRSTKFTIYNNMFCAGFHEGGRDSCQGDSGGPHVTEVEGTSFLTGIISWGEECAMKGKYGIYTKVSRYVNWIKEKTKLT
# assay-explanation: cell-based or functional assay
Numbers only, in pM/min.

These solved cases illustrate the format of a correct answer.
mAb1-4071 (antibody, V domains shown) VH: EVQLVQSGAEVKKPGESLRISCKGSGYSFTPYWIGWVRQMPGKGLEWMGMIDPSDSYTDYGPSFRGHVTISADKSISTAYLQWSSLKASDTAMYYCARVRIREGAFDIWGQGTMVTVSS VL: DIVMTQSPLSLPVTPGEPASISCRSSQRLLHSTGYNYLNWYLQKPGQSPQLLIYLGSRRASGVPDRFSGSGSGTDFTLKISRVEAEDVGVYYCMQALHIPYTFGQGTKLEIK = 65
mAb1-4624 (antibody, V domains shown) VH: EVQLVQSGAEVKKPGESLRISCKGSGYRFTSYWIGWVRQMPGKGLEWMGMIDPTDSYTDYGPSFRGHVTISADKSISTAYLQWSSLKASDTAMYYCARVRIMSGAFDIWGQGTMVTVSS VL: DIVMTQSPLSLPVTPGEPASISCRSSQSLLHSTWYNYLNWYLQKPGQSPQLLIYLGSNRASGVPDRFSGSGSGTDFTLKISRVEAEDVGVYYCMQVLHIPYTFGQGTKLEIK = 550

As a next step, examine the binder that follows.
Reported FXa generation rate at 6.3 nM mAb ( mAb1-4707 (antibody, V domains shown) VH: EVQLVESGGGLVQPGRSLRLSCAASGFTFGDYAMHWVRQAPGKGLEWVSGISWVSGSIGYARSVKGRFTISRDNAKNSLYLQMNSLRAEDTALYYCAKGQYDEDAGMDVWGQGTTVTVSS VL: DIQMTQSPSSLSASVGDRVTITCRASQSIRSYLNWYQQKPGKAPKLLIYAASSLQSGVPSRFSGSGSGTDFTLTISSLQPEDFATYYCQQGYPTWTFGGGTKVEIK ) = 714
